system_tested: Cannabinoid receptor 2 (Homo sapiens)
Sequence (P34972 whole entry): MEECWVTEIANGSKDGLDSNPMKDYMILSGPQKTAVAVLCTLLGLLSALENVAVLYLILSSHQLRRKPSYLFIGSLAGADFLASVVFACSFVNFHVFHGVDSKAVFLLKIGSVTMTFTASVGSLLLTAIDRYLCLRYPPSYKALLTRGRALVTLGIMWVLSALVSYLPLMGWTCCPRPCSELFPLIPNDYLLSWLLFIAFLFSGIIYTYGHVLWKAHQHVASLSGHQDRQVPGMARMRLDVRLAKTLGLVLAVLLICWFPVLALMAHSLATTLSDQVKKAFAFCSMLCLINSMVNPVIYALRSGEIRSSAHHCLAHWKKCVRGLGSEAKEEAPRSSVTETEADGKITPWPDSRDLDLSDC
test_details: Displacement of [3H]CP-55940 from human recombinant CB2 receptor expressed in HEK cells
Assay type: cell-based, HEK293
particulars: read-out: Ki
Some molecules, each annotated with its measured pKi.
# pKi is unitless: minus log10 of the molar concentration; print number only

smi	pKi
CC1(C)C(C(=O)c2cn(CC3CCOCC3)c3cc(Cl)ccc23)C1(C)C	8.60
CC1(C)C(C(=O)c2cn(CC3CCOCC3)c3cc(O)c(O)cc23)C1(C)C	7.68
COc1cc2c(cc1O)c(C(=O)C1C(C)(C)C1(C)C)cn2CC1CCOCC1	9.15
CC1(C)C(C(=O)c2cn(CC3CCOCC3)c3ccc(C#N)cc23)C1(C)C	7.52
CC1(C)C(C(=O)c2cn(CC3CCOCC3)c3cc4c(cc23)OCO4)C1(C)C	9.00

# input Fill in the blank: the reported pKi of `CC1(C)C(C(=O)c2cn(CC3CCOCC3)c3c(OCc4ccccc4)cccc23)C1(C)C` is ____.
# output 8.51

# input Please do the same for `CC1(C)C(C(=O)c2cn(CC3CCOCC3)c3cc(S(C)(=O)=O)ccc23)C1(C)C` as well.
# output 8.52

# input Please do the same for `COc1ccc2c(c1)c(C(=O)C1C(C)(C)C1(C)C)cn2CCN1CCOCC1` as well.
# output 6.63

# input Please do the same for `CC1(C)C(C(=O)c2cn(CC3CCOCC3)c3cc(Br)ccc23)C1(C)C` as well.
# output 9.19

# input Please do the same for `Cc1c(C(=O)C2C(C)(C)C2(C)C)c2ccccc2n1CCN1CCOCC1` as well.
# output 7.57

# input Please do the same for `CC1(C)C(C(=O)c2cn(CC3CCOCC3)c3ccc(OCCCCO)cc23)C1(C)C` as well.
# output 6.59

# input Please do the same for `CC1(C)C(C(=O)c2cn(CC3CCOCC3)c3ccc(OCCCCBr)cc23)C1(C)C` as well.
# output 7.14

# input Please do the same for `CC1(C)C(C(=O)c2cn(CC3CCOCC3)c3c(F)c(F)c(F)c(F)c23)C1(C)C` as well.
# output 8.30
